Reference source: FireProtDB (doi:10.1093/protein/7.9.1089)

B1: Ribonuclease, P00648 (parent)
chain: MMKMEGIALKKRLSWISVCLLVLVSAAGMLFSTAAKTETSSHKAHTEAQVINTFDGVADYLQTYHKLPDNYITKSEAQALGWVASKGNLADVAPGKSIGGDIFSNREGKLPGKSGRTWREADINYTSGFRNSDRILYSSDWLIYKTTDHYQTFTKIR

- Variants of: B1
- study.conditions: Bacillus amyloliquefaciens; pH 4.4; 25 °C; Thermal; DSC; Sodium acetate/Acetic acid 6.08 mM/13.92 mM/; reversible: yes (>95%); structure 1BNI; whole UniProt chain shown
metric.name: unfolding free energy (kJ/mol)
# number only, unit kJ/mol dropped from output

Worked examples follow.
I135V
30.2
D69M
35.1

Now look at this entry.
Query: Input "R130Q" , output reported unfolding free energy.
Reply: 29.6
